- Target: T1, TRCW5 antigen (CD3δε-Fc-Avi) (biotinylated (site not stated))
- T1 construct: also called recombinant CD3
- T1 sequence (chain, as listed by the source mutant limits assumed): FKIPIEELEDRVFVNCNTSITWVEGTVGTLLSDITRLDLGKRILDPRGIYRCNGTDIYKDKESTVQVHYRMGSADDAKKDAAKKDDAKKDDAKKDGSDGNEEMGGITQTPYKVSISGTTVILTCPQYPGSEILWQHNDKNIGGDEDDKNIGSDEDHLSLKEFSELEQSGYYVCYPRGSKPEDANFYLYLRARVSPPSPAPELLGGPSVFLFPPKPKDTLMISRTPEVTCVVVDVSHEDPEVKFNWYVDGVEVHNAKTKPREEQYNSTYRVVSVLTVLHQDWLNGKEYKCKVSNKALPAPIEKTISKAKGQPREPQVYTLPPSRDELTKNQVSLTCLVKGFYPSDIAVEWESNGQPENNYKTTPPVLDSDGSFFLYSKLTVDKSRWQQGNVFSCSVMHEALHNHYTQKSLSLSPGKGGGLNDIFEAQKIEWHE
- Test name: ELISA after heat
Reported % Retained 60° C. values follow for various binders
Measured metric: % Retained 60° C. (%)

1) CD3B2065 (scFv) scFv: QVQLVQSGAEVKKPGSSVKVSCKASGYTFTRSTMHWVKQAPGQGLEWIGYINPSSAYTNYAQKFQGRVTLTADKSTSTAYMELSSLRSEDTAVYYCASPQVHYDYNGFPYWGQGTLVTVSSGGSEGKSSGSGSESKSTGGSEIVLTQSPATLSASPGERVTLSCSASSSVSYMNWYQQKPGQAPRRWIYDSSKLASGVPARFSGSGSGRDYTLTISSLEPEDFAVYYCQQWSRNPPTFGGGTKVEIK = 112
2) CD3B2059 (scFv) scFv: QVQLVQSGAEVKKPGSSVKVSCKASGYTFTRSTMHWVKQAPGQGLEWIGYINPSSAYTNYAQKFQGRVTLTADKSTSTAYMELSSLRSEDTAVYYCASPQVHYDYNGFPYWGQGTLVTVSSGGSEGKSSGSGSESKSTGGSEIVLTQSPATLSASPGERVTLSCSASSSVSYMNWYQQKPGQSPRRLIYDSSKLASGVPARFSGSGSGRDYTLTISSLEPEDFAVYYCQQWSRNPPTFGGGTKVEIK = 98
3) CD3B2033 (scFv) scFv: QVQLVQSGAEVKKPGSSVKVSCKASGYTFTRSTMHWVKQAPGQGLEWMGYINPSSAYTNYNQKFQGRVTLTADKSTSTAYMELSSLRSEDTAVYYCASPQVHYDYNGFPYWGQGTLVTVSSGGSEGKSSGSGSESKSTGGSEIVLTQSPATLSASPGERVTLSCSASSSVSYMNWYQQKPGTAPRRLIYDSSKLASGVPARFSGSGSGRDYTLTISSLEPEDFAVYYCQQWSRNPPTFGGGTKVEIK = 84
